- Tested on: MCF7
- assay.procedure: Cytotoxicity against human MCF7 cells assessed as cell survival at 50 uM after 48 hrs by […]
- Assay type: functional
- conditions.used: MCF7, 48 h, read-out: Survival
recorded.metric: viability at 50 µM (%)

>>> result_value("N#CC1=C(N)N=C2c3c(-c4ccc(Br)cc4)cn(-c4ccc(S(N)(=O)=O)cc4)c3N=CN2N=C1")
40.1
>>> result_value("NS(=O)(=O)c1ccc(-n2cc(-c3ccc(Br)cc3)c3c2ncn2nnnc32)cc1")
25.4
>>> result_value("CCOC(=O)n1c(=O)nc2c3c(-c4ccc(Br)cc4)cn(-c4ccc(S(N)(=O)=O)cc4)c3ncn21")
23.2
>>> result_value("NS(=O)(=O)c1ccc(-n2cc(-c3ccc(Br)cc3)c3c2ncn2nc4c5ccccc5nc-4nc32)cc1")
31.5
>>> result_value("CCOC(=O)Cc1nc2c3c(-c4ccc(Br)cc4)cn(-c4ccc(S(N)(=O)=O)cc4)c3ncn2n1")
34.8
>>> result_value("CCO/C=N/c1c(C#N)c(-c2ccc(Br)cc2)cn1-c1ccc(S(N)(=O)=O)cc1")
24.6
>>> result_value("CC(=O)N1C(=O)/C(=N\\n2cnc3c(c(-c4ccc(Br)cc4)cn3-c3ccc(S(N)(=O)=O)cc3)c2=N)c2ccccc21")
25.9
>>> result_value("C/C(CC(=O)c1ccccc1)=N/n1cnc2c(c(-c3ccc(Br)cc3)cn2-c2ccc(S(N)(=O)=O)cc2)c1=N")
25.1

----------
- Test system: MCF7
- assay.procedure: Cytotoxicity against human MCF7 cells assessed as cell survival at 25 uM after 48 hrs by […]
- Assay type: functional
- conditions.used: MCF7, 48 h, read-out: Survival
recorded.metric: viability at 25 µM (%)

>>> result_value("NS(=O)(=O)c1ccc(-n2cc(-c3ccc(Br)cc3)c3c2N=CN2NC(=O)CN=C32)cc1")
35.8
>>> result_value("CCOC(=O)Cc1nc2c3c(-c4ccc(Br)cc4)cn(-c4ccc(S(N)(=O)=O)cc4)c3ncn2n1")
41
>>> result_value("C/C(CC(=O)c1ccccc1)=N/n1cnc2c(c(-c3ccc(Br)cc3)cn2-c2ccc(S(N)(=O)=O)cc2)c1=N")
33.3
>>> result_value("N#Cc1c(N)nn2cnc3c(c(-c4ccc(Br)cc4)cn3-c3ccc(S(N)(=O)=O)cc3)c12")
29.2
>>> result_value("NS(=O)(=O)c1ccc(-n2cc(-c3ccc(Br)cc3)c3c2ncn2[nH]c(=O)c(=O)nc32)cc1")
36.6
>>> result_value("CCO/C=N/c1c(C#N)c(-c2ccc(Br)cc2)cn1-c1ccc(S(N)(=O)=O)cc1")
29.4
